# system-under-test: PPARδ-LBD (Homo sapiens, UniProt Q03181)
# Sequence (Q03181 170-441): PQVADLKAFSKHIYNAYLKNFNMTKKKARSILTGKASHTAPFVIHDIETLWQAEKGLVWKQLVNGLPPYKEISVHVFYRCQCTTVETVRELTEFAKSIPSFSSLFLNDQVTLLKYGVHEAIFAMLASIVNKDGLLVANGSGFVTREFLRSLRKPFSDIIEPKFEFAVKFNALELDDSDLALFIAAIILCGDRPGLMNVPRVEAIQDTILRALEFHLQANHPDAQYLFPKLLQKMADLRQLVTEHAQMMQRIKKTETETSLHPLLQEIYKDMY
# assay: TR-FRET PGC1α coactivator peptide recruitment assay, PPARδ-LBD
property-measured: pEC50
One number for each entry, as −log10 of the molar value.

Please tell me: pEC50 of CC[C@@H](Oc1cccc(CN(CCCOc2ccc(OC)cc2)c2nc3ccccc3o2)c1)C(=O)O [pemafibrate] , system PPARδ-LBD (Homo sapiens, UniProt Q03181)?
5.21

###

# system-under-test: human PPARα-LBD (Homo sapiens)
# Sequence (Q07869 200-468): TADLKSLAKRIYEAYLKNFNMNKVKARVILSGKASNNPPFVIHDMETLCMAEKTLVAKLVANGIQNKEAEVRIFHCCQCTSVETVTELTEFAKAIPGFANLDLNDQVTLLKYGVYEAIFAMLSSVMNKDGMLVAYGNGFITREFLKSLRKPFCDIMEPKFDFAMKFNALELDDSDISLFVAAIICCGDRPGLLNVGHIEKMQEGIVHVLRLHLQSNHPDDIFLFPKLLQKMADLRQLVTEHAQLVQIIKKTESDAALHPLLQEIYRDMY
# assay: TR-FRET PGC1α coactivator peptide recruitment assay, PPARα-LBD
property-measured: pEC50
One number for each entry, as −log10 of the molar value.

Quick one: pEC50 for CC(C)(Oc1ccc(C(=O)c2ccc(Cl)cc2)cc1)C(=O)O ?
4.68
